Assay: yeast display, Sf9 membrane polyspecificity reagent, FACS + sequencing; frameworks hold sequencing errors

{"columns": ["PRIMARY_SEQUENCE", "polyreactivity (PSR sort gate)"],
 "data": [
  ["QVQLVESGGGLVQAGGSLRLSCAASGRTFWANAMGWYRQAPGKERELVAAINYSGGRTYYADSVKGRFTISRDNAKNTVYLQMNSLKPEDTAVYYCNVVHGGAISDYWGQGTQVTVSS", "high polyreactivity"],
  ["QIQLVESGGWLVQAGGSLRLRCAASGNTIHWNVMVWYRQPPGKERELVATITFSGSSTYYADSVKGRFTISRDNAKNTVYLQMNSLQPEDTAVYFCNATRYRLRPSGVRYKYNYWGQGTQGTVSS", "low polyreactivity"],
  ["QVQLVESGGGLVQAGGSLRLSCAASGITFTYNAMGWYRQAPGKERELVAAITWSGGSTYYADSVKGRFTISRDNAKYTVYLQMNSLKPEDTAVYYCNAKHFAYSVAHPYLRYGYDYWGQGTQVTVSS", "low polyreactivity"],
  ["QVQQQESGGGLVQAGGSLRLSCAASGYISVVIGMGWYRQSPGKERELVASIAYGAITYYTDSVKGRFTISRDYAKNTEYLQMNSLKAEDTAVYYCAADQPPLAYHWYWGQGTQATVSS", "high polyreactivity"],
  ["QVQLVESGGGLVQAGGSLRLSCAASGRTFRKYAMGWYRQAPGKERELVAAISWSGGSTYYANSVKGRFTISRDNAKNTVYLQMNSLKPEDTAVYYCAAVPVHTGSLYWGFTTGYDYWGQGTQVTVSS", "low polyreactivity"],
  ["QVQLVESGGGLVQAGGSLRLSCAASGSIFYGYAMGWYRQAPGKERELVAAITGGGSTNYADSVKGRFTISRDNAKNTVYLQMNSLKPEDTAVYYCAAAPVSLPDYGYWGQGTQVTVSS", "low polyreactivity"],
  ["QVQLVESGGGLVQAGGSLRLSCAASGFTFNYYAMGWYRQAPGKERELVAAISGRGGSTYYADSVKGRFTISRDNAKNTVYLQMNSLIPEDTAVYYCAADYWYDYYSTEYDYWGQGTQVTVSS", "low polyreactivity"],
  ["QVQLAESGGGLVQAGGSLRLSCAASGFILHHYTMGWYRQAPGKERELVAAISRSGGSTYYADSVKGRFTISRDNAKNTVYLQMNSLKPEDTAVYYCAKRVSTYGFSGYDYWGQGSQVTVSS", "high polyreactivity"],
  ["QVQRVESGGGLVQAGGSLRLSCAASGITFWGYAMGWYRQAPGKDREFVARINWSGGRTYYAESVKGRFRISRDNAKNTVYLQMNSLKPEDTAVYYCNVVLRSVVSGDYWGQGTQVTVSS", "high polyreactivity"],
  ["QVQLVESGGGLVQAGGSLRLSCAASGFTFPWYAMGWYRQAPGKERELVASISYRGDSTYYADSVKGRFTISRDNAKNTVYLQMNSLKPEDTAVYYCNTRLASYYLPGFDYWGQGTQVTVSS", "low polyreactivity"],
  ["QVQLVESGGGLVQAGGSLRLSCAASGIIFQYYAMGWYRPAPGKEREWVAAITSSGDRTYYADSVKGRFTISRDNAKNNVILQMNSLNPEDTAVYYCNAVYYLDYHYGYEFGYWGQGTQVTVSS", "high polyreactivity"],
  ["QVQLVESGGGLVQAGGSLRLICAASGSTFGYYTMGWYRQAPGKERELVAAITWSGGSTYYADSVKGRFTISRDYANNTVYLQMNSLKPEDTAVYYCAADDYWTPFGYWGQGTQVTVLS", "low polyreactivity"],
  ["QVQLVESGGGLVQAGGSLRLSCAASGGIFGPYAMGWYRQAPGKERELVATITRNGGSTRYADSVKGRFTISRDNAKNTVYLQMNSLKPEDTAVYYCAARGYLDMGYWGQGTQVTVSS", "high polyreactivity"],
  ["QFQLVESCGGLVQAGGSLRLSCAASGPIFKSNAMGCYRQAPGKERELVAAISGSGGRTYYAHSVKGRFTISRDNANNTVYLQMNSLKPEDTAVYYCNAGGSYYARGMDYWGQGTQVTVSS", "high polyreactivity"],
  ["QVQLVESGGGLVQAGGSLRLSCVASARTFFRYAMGWYRQAPGKERELVADITRGGSTYYADSVKGRFTISRDNAKNTVYLQMNSLKPEDTAVYYCNADGRVQRKYDYWGQGTQVTVSS", "high polyreactivity"],
  ["QVQLVESGGGLVQAGGSLRLSCAASGNIFWWDAMGWYRQAPGKERELVAAITSDSTTYYADSVKGRFTISRDNAKNTVYLQMNSLKPEDTAVYYCAAYSYGGQGVDYGYWGQGTQVTVSS", "low polyreactivity"],
  ["QVQLVESGGRLVQAGGSLRLSCAASGITFDLYDMGWYRQAPGKVRELVAAITDADSTYYADSVKGRFTMSRDNEKNTVKLQMTSLIPEDTAVYYCAADFFYSVYSGHYDYWGQGTQVTVSS", "low polyreactivity"],
  ["QVQLVESGGGLVQAGGSLRLSCAASGSTFSKYVMGWYRQATGKERELVAAISGGDRTYYADSVKGRFTISRDNAKNTVYLQMNSLKPEDTAVYYCAAEVLKTRWSYDYWGQGTQVTVSS", "high polyreactivity"],
  ["QVQLVESGGGLVQAGGSLRLSRAATGSIIASYAMGWYRQAPGKERELVSAISARGGSTYYADSVKGRFTISRDNAKNTVYLQMNSLKPEDTAVYSCAARHQQGRRISDYGYWGQGTQVTVSS", "high polyreactivity"],
  ["QGQLVESGGGLVQAGGSLRLSSAASGNTFYGYAMGWYRQSPGKERELVASITLSGDSTYYADSVKGRFTISRDNAKNTVYLQMNSLKPEDTAVYYWAGVYTYPLGYYHYTYDYWGQGTQVTVSS", "low polyreactivity"],
  ["QVQLVESGGGLVQAGGSLRLSCAASGFTFVAYAMGWYRQAPGKERELVAAIRRTDTSTYYADSVKGRFTISRDNAKNTVYLQINSLKPEDTAVYYCAADYWRRTYLGFDYWGQGTQVTVSS", "low polyreactivity"]
]}

----------
Test: yeast display, Sf9 membrane polyspecificity reagent, FACS + sequencing; frameworks hold sequencing errors

{"columns": ["PRIMARY_SEQUENCE", "polyreactivity (PSR sort gate)"],
 "data": [
  ["QVQLVESGGGLVQAGVSLRLSCASSGFTFHYYAMGWYRQAPGKERELVAAISWSSGRTYYADSVKGRFTISRDNAKNTVYLQMNSLKPEDTAVYYCAASSYNRGDYWGQGTQVTVSS", "low polyreactivity"],
  ["QVQLVESGGGLVQAGGSLRLSCAASGSTFSYYTMGWYRPAPGKERELVAAITRRGDSTYADSVKGRFTISRDNAKNTGYLQMNSLKPEATAVYYCAADASVGVSGMDYWGQGTQVTVSS", "low polyreactivity"],
  ["QVQLVESGGGLVQAGGSLRLSCAASGSTFPYNTMGWYRQAPGKEREFVAAITGDGGTTYYADSVKGRFTISRDNAKNTVYLQMYSLKPEDTAVYYSAVPYPAEGYGGDYWGQGTQVTVSS", "low polyreactivity"],
  ["QVQLVESGGGLVQAGGSLRLSCAASGSTIEPNAMGWYRPAPGKERELVAAINYSGGRTYYADSVKGRFTISRDNAKNTVYLQMNSLKPEDTAVYYCAATSIGRYKSRLDYWGQGTQVTVSS", "high polyreactivity"],
  ["QVQLVESGGGLVQAGGSLRISCAASGSTFSLNAMGWYRQAPGKERELVAAISSRGTSTYYADSVKGRFTISRDNAKNTVYLQMNSLKPVDTAVYYCAAGKPKIPDDDYWGQGTQVTVSS", "high polyreactivity"],
  ["QVQLVESGGGLVQAGGSLRLSCAASGNIFFRNARGWYRQAPGKERELVAAITWSGGSTYYADSVKGRFTISRDNAKNTVFLQMNSLKPEDTAVYYCAADAGQYFTYSGDDNLDYWGQGTQVTVSS", "low polyreactivity"],
  ["QVQLVESGGGLVQAGGSLRLSCAASGFTVGVYAMGWYRQAPGKERELVAAISSGGSTNYADSVKGRFTISRDNAKNTVYLQMNSLKPEDTAVYYCAKDVWYLVYYHWKSNRVWQYDYWGQGTQVTVSS", "low polyreactivity"],
  ["QVQLVESGGGLVQAGGSLRLSCAASGSIFPWYTMGWYRQAPGKEREFVAAISWSGGSTYYADSVKGRFTISRDNAKNTDYLQMNSLKPEETAVYYCAASRRPWYRAVTWNAGDYWGQGTQVTVSS", "high polyreactivity"],
  ["QVQLVESGGGLVQAGGSLRLSCAAYGRTFFSYTMGWYRQAPGKERELVASITWSGGSTYYADSVKGRFTISRDNAKNTVYLQMNSLKPEDTAVYYCAADEKLYITGYDYWGQGTQVNVSS", "low polyreactivity"],
  ["QVQLVESGGGLVQAGGSLRLSCAASGRIITKYNTMGCYRPATGIEMELVAAINRSAGSTYYADSVKGRFTISRDNAKNTVYLQMNSLKTEDTAVYYCAAKRGASYGSSLGAPRRHYDEYWGQGTQVTVSS", "low polyreactivity"],
  ["QVQLEESGGGLVQAGGSLRLSCAASGFTFPWNVMGWYRQAPGKEREFVAAISKSAGSTFYADSVKGRFTISRDNAKNTVYLQMNSLKPEDTAVYYCAKPRVPGVHVQEMYYWGQGTQVTVSS", "low polyreactivity"],
  ["QVQLLESGGCLGLAGASLRLSCAASGSTFSTYAMGWYRPAPGKERELVAAITRRGGRTYYADSVKGRFTISRDNAKNTVYLQMNCLKPEDTAVYSCNVLSGLFVQAEYDYWGQGTKVTVSS", "high polyreactivity"],
  ["QVQLVESGGCLVQAGGSLRLSCAASGSTFTGYAMGWYRQAPGKEREFVATITKRGGRTYYADSVKGRFTISRDHAKNTVYLQMNSLKPEDTAVYYCARDQGKLVVPYDYWGQGTQVTVSS", "high polyreactivity"],
  ["QVQLVESGGGLVQAGGSLRLSCSASGGTFITNAMGWYRQAPGKERELVAAITSGGRTTYADSVKGRFTISRDNAKNTVYLQMNSLKPEDTAVYYCAADHVYSYTYNFDYWGQGTQVTVSS", "low polyreactivity"],
  ["QVQLVESGGGLDQAGGSLRLSCAASGIIFWEYAMGWYRQAPGKERELVAAINARGTRTYYADSVKGRFTISRDNAKNTVYLQMNSLKPEDTAVYYCAADRYGWTRYDSWGQGTQVTVSS", "high polyreactivity"],
  ["QVQLVESGGGLVQAGGSLRLSCAASGRIFPAYVMGWYRQSPGKERELVATIDNGGGTYYADSVKGRFTISRDNAKNTVYLQMNSLKPEDTAVYYCARDRHVRWGLKMDYWGQGTQVTVSS", "low polyreactivity"],
  ["QVQLVESGGGLVQAGGSLRLSCAASGSTFTPYAMGWYRQAPGKERELVAAISIRGGSTNYADSVKGRFTISRDNAKNTVYLQMNSLKPEDTAVYYCNAGRLRYIFKSYDYWGQGTQVTVSS", "high polyreactivity"],
  ["QVQLVDSGGGLVQAGGSLRLSCAATGTIFAAYVMGWYRQAPGKERELVAAISYSGGGTYYADSVNGRFTISRDNAKNTVYIQMNSLKPEDTAVYYCAADFGVFKSARYYYWGQGTQVTVSS", "low polyreactivity"],
  ["QVQLVESGGGLVQAGGSLRLSCDASGSTFRGNAMGWYRQAPGKEREFVASISRRGGRTNYADSVKGRFTISRDNAKNTVYLQMNSVKPEDTAVYYCAATTVPLGDYWGLGTQVTVSS", "high polyreactivity"],
  ["QVQLVESGGGLVQAGCSLRLSCAASGRPFWYNAMGGYRQAPGNVRELVAGISGSGGSTYYADSVKGRFTISRDNAKNTVYLQMNSLKPEDTAVYYCAATTGYSRSYRYGYWGQGTQVTVSS", "high polyreactivity"],
  ["QVQLVESGGGLVQAGGSLRLSCAASGRIFYNYDMGWYRQAPGKERELVAAITSGGNTYADSVKGRFTISRDNAKNTVYLQMNSLKPEDTAVYYCNARDKFYVPSQYAYDYWGQGTQVTVSS", "low polyreactivity"]
]}
